assay: Cytotoxicity against human HepG2 cells assessed as reduction in cell viability for 24 hrs by Celltiter-Glo assay; type: toxicity, cell-based

| STRUCTURE_NOTATION | IC50 at 24 h |
| --- | --- |
| COc1cnc2ccc(=O)n(CCN[C@H]3CC[C@H]4[C@H](C3)OC(=O)N4c3ccc4c(n3)NC(=O)CO4)c2n1 | > 128 µg/mL |
| COc1ccc2ccc(=O)n(CCN[C@H]3CC[C@H]4[C@H](C3)OC(=O)N4c3ccc4c(n3)NC(=O)CS4)c2n1 | 35 µg/mL |
| COc1cnc2ccc(=O)n(CCCN[C@H]3CC[C@H]4[C@H](C3)OC(=O)N4c3ccc4c(n3)NC(=O)CO4)c2c1 | > 64 µg/mL |
| O=C1COc2ccc(N3C(=O)O[C@H]4C[C@@H](NCCCn5c(=O)cnc6ccc(F)cc65)CC[C@@H]43)nc2N1 | > 128 µg/mL |
| COc1ccc2ccc(=O)n(CCN[C@@H]3CC[C@@H]4[C@H](C3)OC(=O)N4c3ccc4c(n3)NC(=O)CO4)c2n1 | > 32 µg/mL |
| COc1ccc2ncc(=O)n(CCN[C@H]3CC[C@H]4[C@H](C3)OC(=O)N4c3ccc4c(n3)NC(=O)CO4)c2n1 | > 64 µg/mL |
| N#Cc1cnc2ccc(=O)n(CCCN[C@H]3CC[C@H]4[C@H](C3)OC(=O)N4c3ccc4c(n3)NC(=O)CO4)c2c1 | > 32 µg/mL |
